Recorded Ka by entry
- test system: T1, recombinant OX40 protein with a His tag (Cat: 10481-H08H, Sino Biological) (UniProt P43489 29-216)
- T1 construct: Bought protein; also called OX40-His (bought); not shown: His tag
- T1 sequence (looked up): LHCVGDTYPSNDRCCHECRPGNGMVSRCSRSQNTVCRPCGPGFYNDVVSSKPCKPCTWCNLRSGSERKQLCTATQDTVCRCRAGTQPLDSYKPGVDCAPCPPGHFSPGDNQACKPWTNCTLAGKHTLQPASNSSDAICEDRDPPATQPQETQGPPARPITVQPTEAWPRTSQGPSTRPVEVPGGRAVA
- method: SPR, BIAcore T-200; antibody captured by anti-human IgG, OX40-His flowed; Test 1
Value expressed in M⁻¹; do not type the unit.

IN: Return reported Ka; argument: 445-1 (antibody, V domains shown) VH: QVQLVQSGAEVKKPGSSVKVSCKASGYKFTSYIIHWVRQAPGQGLEWMGYINPYNDGTRYNQKFQGRVTLTSDKSTSTAYMELSSLRSEDTAVYYCARGYYGSSYAMDYWGQGTTVTVSS VL: DIQMTQSPSSLSASVGDRVTITCSASQGISNYLNWYQQKPGKAIKLLIYDTSTLYSGVPSRFSGSGSGTDYTLTISSLQPEDFATYYCQQYSKLPYTFGGGTKVEIK
OUT: 5.6e+07

IN: Return reported Ka; argument: ch445 (antibody, V domains shown, also called Mu445 variable domains fused to human IgG1wt/kappa constant regions) VH: EVQLQQSGPELVKPGASVKMSCKASGYKFTSYIIHWVKQKPGQGLEWIGYINPYNDGTRYNEKFKGKATLTSDKSSSTAYMEYSSLTSEDSAVYYCARGYYGSSYAMDYWGQGTSVTVSS VL: DIQMTQTTSSLSASLGDRVTISCSASQGISNYLNWYQQKPDGTIKLLIYDTSTLYSGVPSRFSGSGSGTDYFLTISNLEPEDIATYYCQQYSKLPYTFGGGTKLEKK
OUT: 1.22e+08

IN: Return reported Ka; argument: 445-3 (antibody, V domains shown) VH: QVQLVQSGAEVKKPGSSVKVSCKASGYKFTSYIIHWVRQAPGQGLEWMGYINPYNEGTRYNQKFQGRVTLTADKSTSTAYMELSSLRSEDTAVYYCARGYYGSSYAMDYWGQGTTVTVSS VL: DIQMTQSPSSLSASVGDRVTITCRASQGISNYLNWYQQKPDGAIKLLIYDASTLYSGVPSRFSGSGSGTDFTLTISSLQPEDFATYYCQQYSKLPYTFGGGTKVEIK
OUT: 1.09e+08

IN: Return reported Ka; argument: 445-3 IgG4 (antibody, V domains shown) VH: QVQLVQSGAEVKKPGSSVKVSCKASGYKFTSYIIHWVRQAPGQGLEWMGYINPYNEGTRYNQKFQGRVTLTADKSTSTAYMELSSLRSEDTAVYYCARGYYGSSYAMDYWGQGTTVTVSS VL: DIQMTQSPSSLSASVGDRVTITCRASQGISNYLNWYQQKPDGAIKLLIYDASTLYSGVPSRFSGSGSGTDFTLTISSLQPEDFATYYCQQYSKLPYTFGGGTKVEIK
OUT: 1e+08
